solubility at 2 h reference
assay: Solubility testing of peptides at different pH; type: physicochemical; details: 50 mM phosphate buffer pH 6.5; target concentration 1 mg/ml; 2 hours agitation; read-out: Solubility Buffer pH 6.5
Starred links: 1 amine or outer side, 2 acyl side, 3 side chain; linkers in the order of their positions; H or OH if unused. Positions of bridges follow the written chain, without caps; N, C: chain ends. Non-standard residues stand in square brackets, D forms with d. Residues, ends and D or L forms follow the SMILES beside them. *: point of attachment. X3 = CN(CCCCC(=O)N[C@@H](CS[*:2])C(=O)[*:1])[*:3]; Trp(7-Me) = Cc1cccc2c(C[C@H](N)C(=O)O)c[nH]c12; X1 = O=C(CCCCN[*:3])N[C@@H](CS[*:2])C(=O)[*:1]; 2Nal = N[C@@H](Cc1ccc2ccccc2c1)C(=O)O; AEF = NCCOc1ccc(C[C@H](N)C(=O)O)cc1; αMeL = CC(C)C[C@](C)(N)C(=O)O; Thp = NC1(C(=O)O)CCOCC1; Me2NCH2CH2 = CN(C)CC*; Aib = CC(C)(N)C(=O)O; Ava = NCCCCC(=O)O; βAla = NCCC(=O)O

Previously resolved entries follow.
{"compound": "CC(=O)N[C@H]1CCCCNC(=O)[C@@H]2CSSC[C@H](NC(=O)[C@H](CCC(N)=O)NC(=O)[C@H](Cc3c[nH]c4ccccc34)NC1=O)C(=O)N[C@@H](Cc1ccc(OCCN)cc1)C(=O)N[C@@H](Cc1ccc3ccccc3c1)C(=O)NC(C)(C)C(=O)N[C@H](C(=O)N[C@@H](CC(N)=O)C(=O)N[C@@H](CC(N)=O)C(N)=O)CCC(=O)N(C)CCCCC(=O)N2 [compound 12] (Ac-KWQC[AEF][2Nal][Aib]ENN-NH2; linker 1-4-8 via X3)", "solubility at 2 h": "290 µg/mL"}
{"compound": "CC(=O)N[C@H]1CCCCNC(=O)[C@@H]2CSSC[C@H](NC(=O)[C@H](CCC(N)=O)NC(=O)[C@H](Cc3c[nH]c4ccccc34)NC1=O)C(=O)N[C@@H](Cc1ccc(OCCN)cc1)C(=O)N[C@@H](Cc1ccc3ccccc3c1)C(=O)N[C@@](C)(CC(C)C)C(=O)N[C@H](C(=O)N[C@@H](C)C(=O)N[C@H](CC(C)C)C(N)=O)CCC(=O)N(C)CCCCC(=O)N2 [compound 44] (Ac-KWQC[AEF][2Nal][αMeL]EA[dL]-NH2; linker 1-4-8 via X3)", "solubility at 2 h": "< 10 µg/mL"}
{"compound": "CC(C)C[C@]1(C)NC(=O)[C@H](Cc2ccc3ccccc3c2)NC(=O)[C@H](Cc2ccc(OCCN(C)C)cc2)NC(=O)[C@@H]2CSSC[C@H](NC(=O)CCCCNC(=O)CC[C@@H](C(=O)N[C@@H](CC(N)=O)C(=O)N[C@@H](CC(N)=O)C(N)=O)NC1=O)C(=O)N[C@@H](CC(N)=O)C(=O)N[C@@H]([C@@H](C)O)C(=O)N[C@@H](Cc1c[nH]c3ccccc13)C(=O)N[C@@H](CCC(N)=O)C(=O)N2 [compound 27] ([Ava]CNTWQCY(Me2NCH2CH2)[2Nal][αMeL]ENN-NH2; disulfide 2-7; lactam N-11)", "solubility at 2 h": "≥ 870 µg/mL"}
{"compound": "CC(=O)N[C@H]1CCCCNC(=O)[C@@H]2CSSC[C@H](NC(=O)[C@H](CCC(N)=O)NC(=O)[C@H](Cc3c[nH]c4ccccc34)NC1=O)C(=O)N[C@@H](Cc1ccc(OCCN(C)C)cc1)C(=O)N[C@@H](Cc1ccc3ccccc3c1)C(=O)NC1(CCOCC1)C(=O)N[C@H](C(=O)N[C@@H](C)C(=O)N[C@H](CC(C)C)C(N)=O)CCC(=O)NCCCCC(=O)N2 [compound 33] (Ac-KWQCY(Me2NCH2CH2)[2Nal][Thp]EA[dL]-NH2; linker 1-4-8 via X1)", "solubility at 2 h": "≥ 890 µg/mL"}

Data request, read-out solubility at 2 h, for CC(=O)NCCCC[C@@H]1NC(=O)[C@H](Cc2c[nH]c3c(C)cccc23)NC(=O)[C@H]([C@@H](C)O)NC(=O)[C@H](CC(N)=O)NC(=O)[C@@H]2CSSC[C@H](NC1=O)C(=O)N[C@@H](Cc1ccc(OCCN(C)C)cc1)C(=O)N[C@@H](Cc1ccc3ccccc3c1)C(=O)NC1(CCOCC1)C(=O)N[C@H](C(=O)N[C@@H](CC(N)=O)C(=O)N[C@@H](Cc1c[nH]cn1)C(=O)NCCC(N)=O)CCC(=O)NCCCCC(=O)N2 [compound 49] ([Ava]CNT[Trp(7-Me)]K(Ac)CY(Me2NCH2CH2)[2Nal][Thp]ENH[βAla]-NH2; disulfide 2-7; lactam N-11)
≥ 1090 µg/mL
